targetOfAssay: Keap1-Maltose Binding Protein (MBP tag) (Homo sapiens)
Sequence (Q14145 whole entry): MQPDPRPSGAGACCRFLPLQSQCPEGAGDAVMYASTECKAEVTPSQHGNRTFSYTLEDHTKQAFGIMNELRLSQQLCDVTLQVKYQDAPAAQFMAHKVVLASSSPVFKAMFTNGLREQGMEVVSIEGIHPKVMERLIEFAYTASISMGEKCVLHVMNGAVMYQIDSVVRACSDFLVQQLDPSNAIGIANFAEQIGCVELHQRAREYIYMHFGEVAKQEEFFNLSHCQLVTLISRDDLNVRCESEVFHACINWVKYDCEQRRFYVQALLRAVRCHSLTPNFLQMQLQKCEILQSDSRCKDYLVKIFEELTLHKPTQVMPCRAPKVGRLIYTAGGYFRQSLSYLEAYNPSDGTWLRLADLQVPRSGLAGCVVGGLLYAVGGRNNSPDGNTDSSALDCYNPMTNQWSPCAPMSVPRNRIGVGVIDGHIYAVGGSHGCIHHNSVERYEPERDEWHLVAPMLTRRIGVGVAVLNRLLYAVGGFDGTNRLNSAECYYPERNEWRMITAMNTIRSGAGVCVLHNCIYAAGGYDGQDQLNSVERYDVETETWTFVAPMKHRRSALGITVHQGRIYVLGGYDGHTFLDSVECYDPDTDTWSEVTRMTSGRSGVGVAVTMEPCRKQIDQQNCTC
methodSummary: Nrf2-Keap1 HTRF (TR-FRET) binding assay: displacement of biotinylated ETGE peptide from Keap1-MBP
testParameters: HTRF (TR-FRET); displacement of ETGE-biotin from Keap1-MBP; values banded into grades; read-out: Binding (IC50) ETGE-Keap1
Starred links: 1 amine or outer side, 2 acyl side, 3 side chain; linkers in the order of their positions; H or OH if unused. Positions of bridges follow the written chain, without caps; N, C: chain ends. Non-standard residues stand in square brackets, D forms with d. Residues, ends and D or L forms follow the SMILES beside them. *: point of attachment. Phe(4-yl) = O=C([C@H](Cc1ccc([*:3])cc1)N[*:1])[*:2]; X1 = O=C([C@@H]1C[C@H](N[*:3])CN1[*:1])[*:2]; X8 = O=C([C@H](Cc1cccc([*:3])c1)N[*:1])[*:2]; mXylylene = c1cc(C[*:1])cc(C[*:2])c1; oXylylene = c1ccc(C[*:2])c(C[*:1])c1; X2 = c1ccc2cc(C[*:2])c(C[*:1])cc2c1; Stearoyl = CCCCCCCCCCCCCCCCCC(=O)*; βAla = NCCC(=O)O
Quick reference: IC50 of the listed items.

[
  {
    "compound": "CCCCCCCCCCCCCCCCCC(=O)NCCC(=O)N[C@@H](CCCCN)C(=O)N[C@@H](CCCCN)C(=O)N[C@H]1CSCc2ccccc2CSC[C@@H](C(=O)N[C@@H](CCCCN)C(=O)N[C@@H](CCCCN)C(N)=O)NC(=O)[C@H](CCC(=O)O)NC(=O)CNC(=O)[C@H]([C@@H](C)O)NC(=O)[C@H](CCC(=O)O)NC(=O)[C@@H]2CCCN2C(=O)[C@H](CC(=O)O)NC1=O [Example 53] ({Stearoyl-βAla}-KKCDPETGECKK-NH2; linker 3-10 via oXylylene)",
    "targetOfAssay": "Keap1-Maltose Binding Protein (MBP tag) (Homo sapiens)",
    "IC50": "1 to 100 nM"
  },
  {
    "compound": "CCCCCCCCCCCCCCCCCC(=O)NCCC(=O)N(C)[C@@H](CC(C)C)C(=O)N[C@@H](CCC(N)=O)C(=O)N[C@H]1CSCc2ccccc2CSC[C@@H](C(=O)N[C@@H](CC(C)C)C(=O)N2CCC[C@H]2C(N)=O)NC(=O)[C@H](CCC(=O)O)NC(=O)CNC(=O)[C@H]([C@@H](C)O)NC(=O)[C@H](CCC(=O)O)NC(=O)[C@@H]2CCCN2C(=O)[C@H](CC(=O)O)NC1=O",
    "targetOfAssay": "Keap1-Maltose Binding Protein (MBP tag) (Homo sapiens)",
    "IC50": "1 to 100 nM"
  },
  {
    "compound": "CC(C)C[C@H](NC(=O)[C@@H]1CSCc2cccc(c2)CSC[C@H](NC(=O)[C@H](CCC(N)=O)NC(=O)[C@@H](N)CC(C)C)C(=O)N[C@@H](CC(=O)O)C(=O)N[C@@H](CCC(=O)O)C(=O)N[C@@H](CCC(=O)O)C(=O)N[C@@H]([C@@H](C)O)C(=O)NCC(=O)N[C@@H](CCC(=O)O)C(=O)N1)C(=O)N1CCC[C@H]1C(=O)O [Example 3] (H-LQCDEETGECLP-OH; linker 3-10 via mXylylene)",
    "targetOfAssay": "Keap1-Maltose Binding Protein (MBP tag) (Homo sapiens)",
    "IC50": "1 to 100 nM"
  },
  {
    "compound": "CC(=O)N[C@H]1CSCc2cc3ccccc3cc2CSC[C@@H](C(N)=O)NC(=O)[C@H](CCC(=O)O)NC(=O)CNC(=O)[C@H]([C@@H](C)O)NC(=O)[C@H](CCC(=O)O)NC(=O)[C@H](CCC(=O)O)NC(=O)[C@H](CC(=O)O)NC1=O [Example 27] (Ac-CDEETGEC-NH2; linker 1-8 via X2)",
    "targetOfAssay": "Keap1-Maltose Binding Protein (MBP tag) (Homo sapiens)",
    "IC50": "1 to 100 nM"
  },
  {
    "compound": "CC(=O)N[C@H]1CSCc2ccccc2CSC[C@@H](C(N)=O)NC(=O)[C@H](CCC(=O)O)NC(=O)CNC(=O)[C@H]([C@@H](C)O)NC(=O)[C@H](CCC(=O)O)NC(=O)[C@H](C)N(C)C(=O)[C@H](CC(=O)O)NC1=O",
    "targetOfAssay": "Keap1-Maltose Binding Protein (MBP tag) (Homo sapiens)",
    "IC50": "1 to 100 nM"
  },
  {
    "compound": "CC(=O)N[C@H]1Cc2cccc(c2)SC[C@@H](C(N)=O)NC(=O)[C@H](CCC(=O)O)NC(=O)CNC(=O)[C@H]([C@@H](C)O)NC(=O)[C@H](CCC(=O)O)NC(=O)[C@H](CCC(=O)O)NC(=O)[C@H](CC(=O)O)NC1=O [Example 22] (Ac-[X8]DEETGEC-NH2; thioether 1-8)",
    "targetOfAssay": "Keap1-Maltose Binding Protein (MBP tag) (Homo sapiens)",
    "IC50": "1 to 100 nM"
  },
  {
    "compound": "CCCCCCCCCCCCCCCCCC(=O)N[C@H]1C[C@H]2C(=O)N[C@@H](CCC(N)=O)C(=O)N[C@H]3CSCc4ccccc4CSC[C@H](NC(=O)[C@H](CCC(=O)O)NC(=O)CNC(=O)[C@H]([C@@H](C)O)NC(=O)[C@H](CCC(=O)O)NC(=O)[C@H](CCCNC(=N)N)NC(=O)[C@H](CC(=O)O)NC3=O)C(=O)N[C@@H](CC(C)C)C(=O)N3CCC[C@@H]3C(=O)N2C1 [Example 70] (cyclo(CDRETGECL[dP][X1](Stearoyl)Q); linker 1-8 via oXylylene)",
    "targetOfAssay": "Keap1-Maltose Binding Protein (MBP tag) (Homo sapiens)",
    "IC50": "< 1 nM"
  },
  {
    "compound": "CCCCCCCCCCCCCCCCCC(=O)NCCC(=O)N[C@@H](CCCCN)C(=O)N[C@@H](CCC(N)=O)C(=O)N[C@H]1CSCc2ccccc2CSC[C@@H](C(=O)N[C@@H](CC(C)C)C(=O)N2CCC[C@H]2C(N)=O)NC(=O)[C@H](CCC(=O)O)NC(=O)CNC(=O)[C@H]([C@@H](C)O)NC(=O)[C@H](CCC(=O)O)NC(=O)[C@@H]2CCCN2C(=O)[C@H](CC(=O)O)NC1=O",
    "targetOfAssay": "Keap1-Maltose Binding Protein (MBP tag) (Homo sapiens)",
    "IC50": "< 1 nM"
  },
  {
    "compound": "CCCCCCCCCCCCCCCCCC(=O)N[C@H]1CCCCNC(=O)[C@H]2CCCN2C(=O)[C@H](CC(C)C)NC(=O)[C@@H]2CSCc3ccccc3CSC[C@H](NC(=O)[C@H](CCC(N)=O)NC1=O)C(=O)N[C@@H](CC(=O)O)C(=O)N1CCC[C@H]1C(=O)N[C@@H](CCC(=O)O)C(=O)N[C@@H]([C@@H](C)O)C(=O)NCC(=O)N[C@@H](CCC(=O)O)C(=O)N2",
    "targetOfAssay": "Keap1-Maltose Binding Protein (MBP tag) (Homo sapiens)",
    "IC50": "< 1 nM"
  },
  {
    "compound": "CC(=O)N[C@H]1Cc2ccc(cc2)SC[C@@H](C(N)=O)NC(=O)[C@H](CCC(=O)O)NC(=O)CNC(=O)[C@H]([C@@H](C)O)NC(=O)[C@H](CCC(=O)O)NC(=O)[C@H](CCC(=O)O)NC(=O)[C@H](CC(=O)O)NC1=O [Example 10] (Ac-[Phe(4-yl)]DEETGEC-NH2; thioether 1-8)",
    "targetOfAssay": "Keap1-Maltose Binding Protein (MBP tag) (Homo sapiens)",
    "IC50": "100 to 5000 nM"
  },
  {
    "compound": "CCCCCCCCCCCCCCCCCC(=O)NCCC(=O)N[C@H](C(=O)N[C@H](C(=O)N[C@H]1CSCc2ccccc2CSC[C@@H](C(=O)N[C@H](C(=O)N[C@H](C(N)=O)C(C)C)C(C)C)NC(=O)[C@H](CCC(=O)O)NC(=O)CNC(=O)[C@H]([C@@H](C)O)NC(=O)[C@H](CCC(=O)O)NC(=O)[C@@H]2CCCN2C(=O)[C@H](CC(=O)O)NC1=O)C(C)C)C(C)C [Example 52] ({Stearoyl-βAla}-VVCDPETGECVV-NH2; linker 3-10 via oXylylene)",
    "targetOfAssay": "Keap1-Maltose Binding Protein (MBP tag) (Homo sapiens)",
    "IC50": "1 to 100 nM"
  }
]
